Numbers sourced from PubChem BioAssay AID1794811.

# test_system: High affinity choline transporter 1 (Homo sapiens)
# measurement_notes: PubChem AID 1794811
# measurement_context: HEK-293 JumpIN-SLC5A7, FLIPR membrane potential dye
test_readout: EC50

{"query_smiles": "C[N+](C)(C)CCO", "test_readout": "EC50", "data_value": "17 µM"}
